assay: LogP via HPLC according to EEC directive 79/831 Annex V.A8 (gradient method, acetonitrile / 0,1 % aqueous formic acid); format: physicochemical; settings: read-out: lgP (HCOOH)
PROPERTY MEASURED: chromatographic logP
Answer using only a numeral; do not append any unit.

Ask: Assign chromatographic logP to the following record: CC[C@H](N=c1scc(-c2cccnc2)n1CCO)c1ccccc1
Result: 1

Ask: Assign chromatographic logP to the following record: CC[C@H](N=c1scc(C)n1CCO)c1ccccc1
Result: 0.98

Ask: Assign chromatographic logP to the following record: C[C@H](N=c1scc(C2CC2)n1CCO)c1ccccc1
Result: 1.01

Ask: Assign chromatographic logP to the following record: CCc1csc(=N[C@@H](C)c2ccc(OC)cc2)n1CCO
Result: 1

Ask: Assign chromatographic logP to the following record: CCc1csc(=N[C@@H](C)c2ccc(F)cc2)n1CCO
Result: 1
